run.description: Compound was tested for lethal dose in mice after oral administration
Type: ADME, organism-based
run.parameters: mouse, in vivo
Entries and their LD50
measured.quantity: LD50 (mg/kg)

>>> result("CCN(CC)CCNc1ccccc1-c1ccccc1NC(=O)Cc1ccc([N+](=O)[O-])cc1")
1130
>>> result("CCCCC1C(=O)N(c2ccccc2)N(c2ccccc2)C1=O [PHENYLBUTAZONE]")
650

====

System: Rattus norvegicus
run.description: Compound was tested for antiinflammatory activity in rats by carrageenam edema test after peroral administration of 200 mg/kg dose; no significant effect
Type: functional, organism-based
Design: dose 200 mg/kg
measured.quantity: inhibition

>>> result("CCN(CC)CCCNc1ccccc1-c1ccccc1NC(=O)Cc1ccc([N+](=O)[O-])cc1")
"No significant effect"
>>> result("CCN(CC)CCCNc1ccccc1-c1ccccc1NC(=O)Cc1ccc(Cl)cc1")
"No significant effect"
>>> result("CN(C)CCCNc1ccccc1-c1ccccc1NC(=O)Cc1ccc(Cl)cc1")
"No significant effect"
>>> result("CNc1ccccc1-c1ccccc1NC(=O)Cc1ccc([N+](=O)[O-])cc1")
"No significant effect"
